System: U251 CNS
Test description: NCI-60 one-dose screen, 48 h
Measurement setup: 10 µM unless noted
This is part of a sample that, as a whole, favours compounds with a hit. Of some 83,000 tested, about 20% had one in any assay. Active and inactive are the calls of the source. How the source made its calls: active means growth percent below 10; inactive means the rest.
// classify into yes for active, no for inactive

Could you check what this test reported for C=C1C(=O)O[C@@H]2C3C(=C(C)CC[C@@H]12)CC1O[C@]13C (some centres undefined) ?
no

Could you check what this test reported for C=CC(CC(c1ccccc1)(c1ccccc1)c1ccccc1)N(CC)CC (centres undefined) ?
no

Could you check what this test reported for COc1ccc(/C=N/NC(=O)Cn2c(-c3ccc(S(C)(=O)=O)cc3)nc3ccccc32)cc1 ?
no

Could you check what this test reported for COc1ccc(-c2cc(-c3cccnc3)nc3sc4c(N)c(C(C)=O)c(-c5ccccc5)nc4c23)cc1OC ?
no

Could you check what this test reported for O=C1CCCCN1c1ccc(C2=NCCCN2)cc1 ?
no

Could you check what this test reported for COc1ccc(C(=O)C/C(=C\c2ccc(O)c(OC)c2)C(=O)NN)cc1 ?
no

Could you check what this test reported for C#CCOc1ccc2nc(CCl)c(Cl)c(Nc3cccc(C(F)(F)F)c3)c2c1 ?
no

Could you check what this test reported for COCCn1cc(-c2csc(-c3c[nH]c4ccc(F)cc34)n2)c2cccnc21 ?
no

Could you check what this test reported for COC1C(O)CC(OC2CC(OC3CC(O[C@@H]4C(=O)c5c(cc6cc(OC7CC(OC8CC(O)C(O)C(C)O8)C(O)C(C)O7)c(C)c(O)c6c5O)CC4[C@H](OC)C(=O)O)OC(C)C3O)OC(C)C2O)OC1C (some centres undefined) ?
yes

---

Test system: 786-0 renal
Test description: NCI-60 one-dose screen, 48 h (100 = growth as untreated, 0 = no growth, -100 = all killed)
Measurement setup: 10 µM unless noted
This is part of a sample that, as a whole, favours compounds with a hit. Of some 83,000 tested, about 20% had one in any assay.
Parameter measured: growth (%)
Response body: numeric value in %, unit text excluded.

Return growth (reported value) for this compound: COc1cc(/C=N/NC(=O)c2ccc(-n3cc(-c4ccccc4)nn3)cc2)cc(OC)c1OC
93.8

Return growth (reported value) for this compound: Cn1c2ccccc2c2c3c(c4c5cc(Br)ccc5n(C)c4c21)C(=O)N(O)C3=O
14.6

Return growth (reported value) for this compound: CC[C@@H](C(=O)[C@@H](C)[C@@H](O)[C@H](C)[C@@H]1O[C@@H]([C@@H](CC)C(=O)ONC(=O)c2ccccc2O)CC[C@@H]1C)C1O[C@]2(C=CC(=O)[C@]3(CC[C@@](C)([C@H]4CC[C@](O)(CC)[C@H](C)O4)O3)O2)[C@H](C)C[C@@H]1C (stereo partly drawn)
61.7

---

Tested on: SK-MEL-28 melanoma
Test description: NCI-60 one-dose screen, 48 h (100 = growth as untreated, 0 = no growth, -100 = all killed)
Measurement setup: 10 µM unless noted
Compounds without any hit were thinned out: in the full panel of roughly 83,000, 20% have a hit.
For each record, write down the corresponding growth.
Response body: numeric value in %, unit text excluded.

Return growth (reported value) for this compound: COCCn1cc(-c2csc(-c3c[nH]c4ccc(F)cc34)n2)c2cccnc21
46.6

Return growth (reported value) for this compound: NCCCNc1nc2ccccc2c2c(=O)c3cc(Cl)ccc3sc12
-30

Return growth (reported value) for this compound: C=C1C(=O)O[C@H]2[C@H]1CC/C(COC(=O)NCc1ccc(Cn3c(=O)sn(-c4ccc(I)cc4)c3=O)cc1)=C\CC[C@@]1(C)O[C@@H]21
93.9

Return growth (reported value) for this compound: Nc1ncnc2c1N=C(c1ccc(Cl)cc1)CC(c1cccc(Nc3ccnc4cc(Cl)ccc34)c1)N2 (stereo not drawn)
86.8

Return growth (reported value) for this compound: O=c1oc2ccccc2cc1-c1nn(-c2ccccc2)cc1-c1nn[nH]n1
107

Return growth (reported value) for this compound: Nc1ccc(Br)cc1C(F)(F)F
121

Return growth (reported value) for this compound: COc1ccc2c(c1)oc1c(C)c3c(c(C)c12)C(=O)N(CCOS(C)(=O)=O)C3=O
102

Return growth (reported value) for this compound: O=C(C1=Cc2cc3ccccc3n2Cc2cnnn21)c1ccc(F)cc1
105

Return growth (reported value) for this compound: Cc1ccc(NC(=O)c2sc3nc(C)c(C(O)c4ccccc4)cc3c2N)cc1 (stereo not drawn)
57.6

Return growth (reported value) for this compound: COc1ccc(C2CC(n3ccnc3)c3cc(OC)c(OC)c(OC)c32)cc1O (stereo not drawn)
78.3

Return growth (reported value) for this compound: O=C1O[C@@H](c2ccccc2Cl)[C@@H]2c3cc4c(cc3CCN12)OCO4
118

Return growth (reported value) for this compound: CC(C)=CC(=O)N[C@H]1CC[C@]2(C)C3CC[C@]4(C)C(C(C)N(C)C)=CCC4C3CCC2[C@H]1O (stereo partly drawn)
-72.5

Return growth (reported value) for this compound: CCn1cc(Cc2cc(C(=O)Nc3cc4cc(OC)c(OC)cc4c(C)n3)ccc2Cl)cn1
35

Return growth (reported value) for this compound: CN(C)CCCNC(=O)c1cncnc1Nc1ccc2c(ccn2Cc2cccc(F)c2)c1
89.6

Return growth (reported value) for this compound: CC1(C)CC[C@]23CC[C@]4(C)[C@H](CC[C@@H]5[C@@]6(C)CCNCC(C)(C)[C@@H]6CC[C@]54C)[C@H]2[C@H]1OC3
99.9

Return growth (reported value) for this compound: COc1ccc2c(c1)c(-c1nc(-c3ccc4ccccc4c3)cs1)cn2C
89.6

Return growth (reported value) for this compound: c1cc(OCCN2CCCCCC2)ccc1CNc1ccc2nc(CCC3CCCCC3)[nH]c2c1
-8.14

Return growth (reported value) for this compound: CCN(CC)CCOc1ccc(C(=O)/C=C\c2ccc(Cl)cc2Cl)cc1
32.5

Return growth (reported value) for this compound: CCOC(=O)c1nnn(-c2no[n+]([O-])c2-c2ccc(OC)cc2)c1COc1cccc2cccnc12
58.2

Return growth (reported value) for this compound: CN(C)c1ccc([C@@H](C(=O)Nc2cccc([N+](=O)[O-])c2)N(C(=O)c2cc3ccccc3[nH]2)c2cccc([N+](=O)[O-])c2)cc1
112

Return growth (reported value) for this compound: COC(=O)/C(CCC=C(C)C)=C1\[C@@H](OC(C)=O)C[C@@]2(C)[C@H]1C/C(=N/O)[C@H]1[C@@]3(C)CC/C(=N\O)[C@@H](C)[C@@H]3CC[C@@]12C
111

Return growth (reported value) for this compound: O=c1oc2c(cnc3ccccc32)cc1-c1cccc(Cl)c1
105

Return growth (reported value) for this compound: Cc1nn(C)c2ncnc(N/N=C/c3cccc(O)c3O)c12
11.4

Return growth (reported value) for this compound: COc1cc2c(cc1OCCCN1CCN(C(=S)SCCC(C#N)(c3ccccc3)c3ccccc3)CC1)N=C[C@@H]1CCCN1C2=O
-82.6

Return growth (reported value) for this compound: O=S(=O)(N=C1C(Cl)=C(Cl)C(=NS(=O)(=O)c2ccccc2)C(Cl)=C1Cl)c1ccccc1
89.5

Return growth (reported value) for this compound: CCN1C(=O)N(CC)C2C1NN=c1s/c(=C\c3ccc(OC)cc3)c(=O)n12 (stereo not drawn)
56.4

Return growth (reported value) for this compound: Nc1[nH]nc2nc(-c3ccccc3)n3c4ccccc4nc3c12
117

Return growth (reported value) for this compound: COC(=O)Cn1c2c(c3c(OC)cccc31)C(=O)c1ccccc1-2
97.1

Return growth (reported value) for this compound: Cc1cc(=O)oc2cc(Oc3nc(Br)cn4c(Br)cnc34)ccc12
104

Return growth (reported value) for this compound: NS(=O)(=O)c1ccc(C(=O)N=Nc2c(O)[nH]c3ccc(Cl)cc23)cc1
114

Return growth (reported value) for this compound: CN(C)CCC(CCN(C)C)(C(=O)O)c1ccccc1
105

Return growth (reported value) for this compound: COCCn1cc(-c2csc(-c3c[nH]c4ccccc34)n2)c2cccnc21
64.4

Return growth (reported value) for this compound: Cc1cc(N2CCN(CC(=O)Nc3ccc4c(ccn4Cc4ccccc4)c3)CC2)nc(N2CCOCC2)n1
91.4

Return growth (reported value) for this compound: C#CCOc1ccc2nc(CCl)c(Cl)c(Nc3cccc(C(F)(F)F)c3)c2c1
108

Return growth (reported value) for this compound: c1ccc2cc(Cn3cc(CSc4nc5ccccc5s4)nn3)ccc2c1
102

Return growth (reported value) for this compound: Clc1cccc(C2Cc3cnccc3-c3[nH]c4ccncc4c32)c1 (stereo not drawn)
62.7

Return growth (reported value) for this compound: COc1ccc(/C=C/C(c2cc(OC)c(OC)c(OC)c2)n2cncn2)cc1O (stereo not drawn)
59.1

Return growth (reported value) for this compound: N#Cc1c(-c2ccccc2)cc(-c2ccccc2)n(CCCCC(=O)NO)c1=O
17.6
